self-cleavage: recorded values
B1: Osa-1-4 twister ribozyme (parent)
chain: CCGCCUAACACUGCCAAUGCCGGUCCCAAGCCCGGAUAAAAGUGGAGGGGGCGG

Variants of: B1
Test: self-cleavage, relative activity (ratio to wild type); higher = more cleavage; co-transcriptional

{"Variant": "A38U G47A", "self-cleavage": 0.18}
{"Variant": "G49A G51U", "self-cleavage": 0.15}
{"Variant": "A10C G47C", "self-cleavage": 0.02}
{"Variant": "C15A C33U", "self-cleavage": 0.09}
{"Variant": "G23C G47A", "self-cleavage": 0.03}
{"Variant": "G30A U24C", "self-cleavage": 0.03}
{"Variant": "A29U C9A", "self-cleavage": 0.03}
{"Variant": "A46G G54A", "self-cleavage": 0.07}
{"Variant": "A7G C25U", "self-cleavage": 0.17}
{"Variant": "G51U G54A", "self-cleavage": 0.25}
{"Variant": "G34A G44A", "self-cleavage": 0.69}
{"Variant": "G42C U18G", "self-cleavage": 0.32}
{"Variant": "G42A U37A", "self-cleavage": 0.51}
{"Variant": "C14G C26U", "self-cleavage": 0.07}
{"Variant": "G19A G34U", "self-cleavage": 0.39}
{"Variant": "G49C U12G", "self-cleavage": 0.06}
{"Variant": "A41C G45U", "self-cleavage": 0.11}
{"Variant": "G42A G44U", "self-cleavage": 0.31}
{"Variant": "C31A G42A", "self-cleavage": 0.03}
{"Variant": "A39C C31U", "self-cleavage": 0.53}
{"Variant": "C26U G22A", "self-cleavage": 0.91}
{"Variant": "A8U G34U", "self-cleavage": 0.1}
{"Variant": "A10G A38G", "self-cleavage": 0.88}
{"Variant": "A10U C11A", "self-cleavage": 0.04}
{"Variant": "C25A", "self-cleavage": 0.2}
{"Variant": "A10C A38C", "self-cleavage": 0.07}
{"Variant": "C33U G42A", "self-cleavage": 0.14}
{"Variant": "C21G G50C", "self-cleavage": 0.06}
{"Variant": "C14G G51A", "self-cleavage": 0.08}
{"Variant": "C32A U18A", "self-cleavage": 0.11}
{"Variant": "A8U U37A", "self-cleavage": 0.31}
{"Variant": "A40U G23U", "self-cleavage": 0.05}
{"Variant": "A8C G45U", "self-cleavage": 0.04}
{"Variant": "A10C C25U", "self-cleavage": 0.04}
{"Variant": "A8G G22C", "self-cleavage": 0.07}
{"Variant": "A36U A40G", "self-cleavage": 0.84}
{"Variant": "C52U G19U", "self-cleavage": 0.48}
{"Variant": "A17C A28G", "self-cleavage": 0.05}
{"Variant": "G19C G50U", "self-cleavage": 0.07}
{"Variant": "C25G G53C", "self-cleavage": 0.02}
{"Variant": "C32A C52A", "self-cleavage": 0.1}
{"Variant": "G13C G35C", "self-cleavage": 0.02}
{"Variant": "A8U G51U", "self-cleavage": 0.08}
{"Variant": "A40C U24A", "self-cleavage": 0.04}
{"Variant": "C32A U43C", "self-cleavage": 0.06}
{"Variant": "A29G C14G", "self-cleavage": 0.08}
{"Variant": "C11U U24C", "self-cleavage": 0.1}
{"Variant": "C26A C33G", "self-cleavage": 0.02}
{"Variant": "C25A C26A", "self-cleavage": 0.04}
{"Variant": "A28C C52U", "self-cleavage": 1.01}
{"Variant": "C11G G30A", "self-cleavage": 0.03}
